Biological target: human Peripheral-type Benzodiazepine Receptor (PBR), TSPO (gene 706) (UniProt P30536)
Sequence (P30536 whole entry, looked up): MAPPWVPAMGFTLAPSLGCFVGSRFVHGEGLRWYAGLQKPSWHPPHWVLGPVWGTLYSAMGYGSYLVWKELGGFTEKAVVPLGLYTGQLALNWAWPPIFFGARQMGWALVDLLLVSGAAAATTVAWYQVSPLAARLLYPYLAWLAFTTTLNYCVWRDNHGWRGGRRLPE
Assay: NVS_MP_hPBR: NovaScreen (NVS) Membrane Protein Assay for human Peripheral-type Benzodiazepine Receptor (PBR) (AID 2283331);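 further: hits reduce radioligand binding relative to DMSO baseline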
Method: NVS_MP_hPBR is a biochemical, single-readout assay that uses extracted gene-proteins from Human colonic cell membranes in a tissue-based cell-free assay. Measurements were taken 1 hour after chemical dosing in a 48-well plate.NVS_MP_hPBR is one of one assay component(s) measured or calculated from the NVS_MP_hPBR assay. […] This assay endpoint, NVS_MP_hPBR, was analyzed in the positive analysis fitting direction relative to DMSO as the negative control and baseline of activity. […]
Inconclusive results are not listed. Active and inactive are the calls of the source. How the source made its calls: active means hit-call score of the fitted dose curve at least 0.9, where 1 is the maximum; inconclusive means response in the unintended direction; inactive means score below 0.9.
Possible outcomes: active, inactive

{"columns": ["Molecule", "Assigned category"],
 "data": [
  ["CN=C=S", "inactive"],
  ["CCOP(=S)(OCC)Oc1nc(Cl)n(C(C)C)n1", "inactive"],
  ["CC(C)=CC1C(C(=O)OCc2coc(Cc3ccccc3)c2)C1(C)C (stereo not given)", "inactive"],
  ["COP(=S)(OC)SCn1nnc2ccccc2c1=O", "active"],
  ["COCC(C)N(C(=O)CCl)c1c(C)csc1C (stereo not given)", "active"]
]}
